TEST_SYSTEM: T1, 4H3381-bH
T1 chain: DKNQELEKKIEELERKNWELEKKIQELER
METHOD_DESCRIPTION: two-hybrid library CCNG1;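 note: natural log of median RNA to DNA barcode read ratio; higher means stronger binding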
interaction score strictly under -0.5 means TRUE; at -0.5 or over means FALSE.

{"columns": ["BINDER", "DISCRETE_LABEL"],
 "data": [
  ["DKIQELEKENEELKREIWELKKKIQELER [4H2253-bH]", "FALSE"],
  ["DKIQQLKQEIQELKQKNQELEWEIQELEQ [4H2673-bN]", "FALSE"],
  ["DKIQELEKENEELERKNWELKKEIQELER [4H2233-bH]", "TRUE"],
  ["DKIQELKKKNEELKRKIWELEKEIQELER [4H3041-bH]", "TRUE"],
  ["DKIAQLKQKIAELKQKNAELEWENAQLEQ [4H2931-bA]", "FALSE"],
  ["DEIQELEKENEELERKIWELEKKIQELKR [4H166-bH]", "FALSE"],
  ["DKIQELKKEIEELERENWELKKEIQELER [4H2585-bH]", "FALSE"]
]}

Where these numbers come from: paper PMC10397247
